We begin with a simple list: items and their reported IC50.
Test system: PC-3 cells
Assay: Anti-proliferative toxicity against prostate cancer cell line PC-3 (CCK8)
Format: cell-based, human
Conditions: Homo sapiens, 72 h, 3 days
Description: Example 82: Detection of Anti-Proliferative Toxicity Against Prostate Cancer Cell Lines Vcap, 22Rv1, and PC-3 […] After the above-treated cells were cultured for 3 days, 10 μL of the CCK8 solution (DOJINDO, Cat. No. PF725) was added to each well. The plate was incubated in an incubator at 37° C. for 1-4 h and then detected on a microplate reader for the reading at 450 nm.

Please review the entries below; each comes with its answer.
compound="Cc1ccc(NC(=O)[C@H]2CC[C@H]3[C@@H]4CC[C@H]5NC(=O)C=C[C@]5(C)[C@H]4CC[C@]23C)cc1OCCCNc1cccc2c1C(=O)N(C1CCC(=O)NC1=O)C2=O (stereo partly shown)" target_entity="PC-3 cells" test_result="> 1000 nM"
compound="C[C@]12C=CC(=O)N[C@@H]1CC[C@@H]1[C@@H]2CC[C@]2(C)[C@@H](C(=O)Nc3cccc(OC4CCC(Nc5cccc6c5C(=O)N(C5CCC(=O)NC5=O)C6=O)C4)c3)CC[C@@H]12 (stereo partly shown)" target_entity="PC-3 cells" test_result="> 1000 nM"
compound="CN(c1cccc(NC(=O)[C@H]2CC[C@H]3[C@@H]4CC[C@H]5NC(=O)C=C[C@]5(C)[C@H]4CC[C@]23C)c1)[C@@H]1CCC[C@@H](Nc2cccc3c2C(=O)N(C2CCC(=O)NC2=O)C3=O)C1 (stereo partly shown)" target_entity="PC-3 cells" test_result="10 to 1000 nM"

Request body: readout IC50, system PC-3 cells, query C[C@]12C=CC(=O)N[C@@H]1CC[C@@H]1[C@@H]2CC[C@]2(C)[C@@H](C(=O)N3CCC(CN4CCN(c5ccc6c(c5)C(=O)N(C5CCC(=O)NC5=O)C6=O)CC4)CC3)CC[C@@H]12 (stereo partly shown) . Return the value. > 1000 nM

Request body: readout IC50, system PC-3 cells, query C[C@]12C=CC(=O)N[C@@H]1CC[C@@H]1[C@@H]2CC[C@]2(C)[C@@H](C(=O)Nc3cccc(N[C@H]4CCC[C@@H](Nc5cccc6c5C(=O)N(C5CCC(=O)NC5=O)C6=O)C4)c3)CC[C@@H]12 (stereo partly shown) . Return the value. > 1000 nM

Form field - read-out: IC50; system: PC-3 cells; submitted item: C[C@]12C=CC(=O)N[C@@H]1CC[C@@H]1[C@@H]2CC[C@]2(C)[C@@H](C(=O)Nc3cccc(N[C@@H]4COC[C@@H](Nc5cccc6c5C(=O)N(C5CCC(=O)NC5=O)C6=O)C4)c3)CC[C@@H]12 (stereo partly shown) 10 to 1000 nM

Requested read-out IC50, target or system PC-3 cells, entry C[C@]12C=CC(=O)N[C@@H]1CC[C@@H]1[C@@H]2CC[C@]2(C)[C@@H](C(=O)Nc3ccc(OCCCCCNc4ccc5c(c4)C(=O)N(C4CCC(=O)NC4=O)C5=O)cc3)CC[C@@H]12 (stereo partly shown) > 1000 nM
